- assay notes: qHTS assay to identify small molecule antagonists of the constitutive androstane receptor (CAR) signaling pathway - cell viability counter screen (AID 1224837); further: nearly all actives have a fitted effect of over 45% in size; further: potency means the concentration at half of the fitted maximal effect
- run parameters: HepG2-CYP2B6-hCAR viability, CellTiter-Fluor, 23 h, co-treated with 50 nM CITCO; series mostly up to 92.4 µM
Results filed as inconclusive are left out. The source made the active and inactive calls. The call rests on the fitted dose curve; in most records, active means well fitted cell-killing curve with a large enough effect in the repeat runs; inconclusive means weak or mixed curves, or effect the other way; inactive means flat fitted curve, though single readings scatter.
property name: Potency

# count of solved cases: 10
compound: OC(CCl)CCl
property name: Potency
assay result: inactive

compound: c1cc(N(CC2CO2)CC2CO2)ccc1OCC1CO1 (stereo not drawn)
property name: Potency
assay result: 54.5 µM (active)

compound: CCC(C)c1ccccc1O (stereo not drawn)
property name: Potency
assay result: inactive

compound: Cc1ccc2c(n1)Oc1ccc(C(C)C(=O)OCC(=O)N(C)C)cc1C2 (stereo not drawn)
property name: Potency
assay result: inactive

compound: C=C(C)C(=O)OCCOC(=O)C(=C)C
property name: Potency
assay result: inactive

compound: CC(CCC(=O)O)(c1ccc(O)cc1)c1ccc(O)cc1
property name: Potency
assay result: inactive

compound: C=C(C)C1CC=C(C)CC1 (stereo not drawn)
property name: Potency
assay result: inactive

compound: Nc1ncn([C@@H]2O[C@H](CO)[C@@H](O)[C@H]2O)c(=O)n1
property name: Potency
assay result: 4.86 µM (active)

compound: OCCO
property name: Potency
assay result: inactive

compound: CC(=O)CC/C=C(\C)CCC=C(C)C
property name: Potency
assay result: inactive

Item COc1ccc(OC)c(C(O)CNC(=O)CN)c1 (stereo not drawn) has what recorded Potency?
inactive

Consider next the compound "C[C@]12CC[C@H]3[C@@H](CCC4=CC(=O)CC[C@@]43C)[C@@H]1CC[C@@H]2C(=O)CO" in the same way.
inactive

Consider next the compound "CCCCc1oc2ccccc2c1C(=O)c1cc(I)c(OCCN(CC)CC)c(I)c1" in the same way.
43.6 µM (active)
